STUDY_SYSTEM: D(2) dopamine receptor (Homo sapiens)
Sequence (P14416 whole entry): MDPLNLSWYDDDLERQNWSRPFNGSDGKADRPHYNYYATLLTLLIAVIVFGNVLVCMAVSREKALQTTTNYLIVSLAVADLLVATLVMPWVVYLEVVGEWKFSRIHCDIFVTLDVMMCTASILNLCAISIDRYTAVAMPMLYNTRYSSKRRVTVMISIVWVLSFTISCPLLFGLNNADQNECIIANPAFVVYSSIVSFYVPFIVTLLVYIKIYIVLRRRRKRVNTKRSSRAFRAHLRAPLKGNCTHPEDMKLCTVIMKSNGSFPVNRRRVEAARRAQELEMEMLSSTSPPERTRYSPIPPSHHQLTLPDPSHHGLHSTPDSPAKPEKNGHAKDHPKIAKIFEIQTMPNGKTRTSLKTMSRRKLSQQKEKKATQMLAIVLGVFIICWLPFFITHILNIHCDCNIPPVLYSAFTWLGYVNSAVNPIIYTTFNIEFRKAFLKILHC
ASSAY_NOTES: Binding affinity towards human Dopamine receptor D2 expressed in CHO cells by [125I]iodosulpiride displacement.
pKi: −log10 of the molar value.
READOUT: pKi

Below are worked cases with known answers.
INSERT INTO results (molecule, experimental_value) VALUES
  ('CCS(=O)(=O)c1ccc(OC)c(-c2ccc(CN3CCCCCC3c3ccccc3)[nH]2)c1 (configuration not stated)', 7.40),
  ('CCN(Cc1ccccc1)Cc1ccc(-c2cc(S(=O)(=O)CC)ccc2OC)[nH]1', 9.10),
  ('CCS(=O)(=O)c1ccc(OC)c(-c2ccc(CN3CCCCC3c3ccccc3)[nH]2)c1 (configuration not stated)', 7.90);

a. CCN(CC)Cc1ccc(-c2cc(S(=O)(=O)CC)ccc2OC)[nH]1
b. CCS(=O)(=O)c1ccc(OC)c(-c2ccc(C(C)N3CCCCCC3)[nH]2)c1 (configuration not stated)
c. CCN1CCCCCC1c1ccc(-c2cc(S(=O)(=O)CC)ccc2OC)[nH]1 (configuration not stated)
d. CCN1CCCC1c1ccc(-c2cc(S(=O)(=O)CC)ccc2OC)[nH]1 (configuration not stated)
e. CCS(=O)(=O)c1ccc(OC)c(-c2ccc(CN3CCCCC3)[nH]2)c1
Parameters: sort_field (pKi), sort_dir (desc). Please write the labels in the order that was asked for.
c, d, b, e, a

----------
STUDY_SYSTEM: D(2) dopamine receptor (Homo sapiens)
ASSAY_NOTES: Binding affinity towards human Dopamine receptor D2 expressed in CHO cells by [125I]iodosulpiride displacement.
READOUT: Ki (nM)

Here are 4 molecules together with their reported answers.
INSERT INTO assay_data (molecule, study_system, measure_unit, experimental_value) VALUES
  ('CCS(=O)(=O)c1ccc(OC)c(-c2ccc(CN3CCCC3)[nH]2)c1', 'D(2) dopamine receptor (Homo sapiens)', 'nM', 251),
  ('CCN1CCCCC1c1ccc(-c2cc(S(=O)(=O)CC)ccc2OC)[nH]1 (centres undefined)', 'D(2) dopamine receptor (Homo sapiens)', 'nM', 7.94),
  ('CCS(=O)(=O)c1ccc(OC)c(-c2ccc(C(C)N3CCCC3)[nH]2)c1 (centres undefined)', 'D(2) dopamine receptor (Homo sapiens)', 'nM', 398),
  ('CCS(=O)(=O)c1ccc(OC)c(-c2ccc(CN3CCCCCCC3c3ccccc3)[nH]2)c1 (centres undefined)', 'D(2) dopamine receptor (Homo sapiens)', 'nM', 316);

A. CCS(=O)(=O)c1ccc(OC)c(-c2ccc(C(C)N3CCCCC3)[nH]2)c1 (centres undefined)
B. CCN1CCCC1CNC(=O)c1cc(S(=O)(=O)CC)ccc1OC (centres undefined) [SULTOPRIDE]
C. CCS(=O)(=O)c1ccc(OC)c(-c2ccc(CN3CCCC3c3ccccc3)[nH]2)c1 (centres undefined)
D. CCS(=O)(=O)c1ccc(OC)c(-c2ccc(CN3CCCCCC3)[nH]2)c1
E. CCS(=O)(=O)c1ccc(OC)c(-c2ccc(CN3CCOCC3)[nH]2)c1
Provide the items ranked by increasing Ki. Record the ranking as a list of labels in the requested order.
B, C, D, A, E
